assay-system: T1, FRMPD1, Q5SYB0
T1 sequence (Q5SYB0 52-145, limits assumed, looked up): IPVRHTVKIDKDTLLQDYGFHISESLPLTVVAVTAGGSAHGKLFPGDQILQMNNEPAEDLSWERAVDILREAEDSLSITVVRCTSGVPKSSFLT
assay-details: holdup assay
Set-up: key: below the threshold = too weak to quantify, mostly under pKd 3.1 to 4
protocol-conditions: plain residues with an end cap or a label only (N-terminal biotin on a linker: ttds)
quantity-measured: pKd

PRVKPQRSKV [PPP1R13L, Q8WUF5] | below the threshold
SSLQSLETSV [ATP2B4, P23634] | below the threshold
SGSRPSATVV [HPV73-E6, Q82005] | below the threshold
EMDRRPATVV [PLCB4, Q15147] | 3.61

Q: Could you share which pKd value was measured for RPLPRKVSQL [DOCK4, Q8N1I0] ?
A: below the threshold

Q: Could you share which pKd value was measured for DKDPHSETAL [TMIGD1, Q6UXZ0] ?
A: below the threshold

Q: Could you share which pKd value was measured for NDPAWDETNL [ARHGEF7, Q14155;Q14155-1] ?
A: below the threshold

Q: Could you share which pKd value was measured for RHTTSTETAV [HPV30-E6, P36809] ?
A: below the threshold

Q: Could you share which pKd value was measured for EVVHTPETSV [SLC16A3, O15427] ?
A: below the threshold

Q: Could you share which pKd value was measured for RLQRRRETQV [HPV18-E6, P06463] ?
A: below the threshold

Q: Could you share which pKd value was measured for PVRVCEETSL [OTULIN, Q96BN8] ?
A: below the threshold

Q: Could you share which pKd value was measured for QRQARSETLV [HPV59-E6, Q81964] ?
A: below the threshold

Q: Could you share which pKd value was measured for FHPLGADSQV [SLC2A1, P11166] ?
A: below the threshold

Q: Could you share which pKd value was measured for RLPKIKETTV [FRMPD4, Q14CM0] ?
A: below the threshold

Q: Could you share which pKd value was measured for VDFPPKESSL [ACVR2A, P27037] ?
A: below the threshold

Q: Could you share which pKd value was measured for SKPTRRETEV [HPV35-E6, P27228] ?
A: below the threshold

Q: Could you share which pKd value was measured for KKYVDAETSL [SLC4A7, Q9Y6M7] ?
A: below the threshold

Origin of measurements: paper PMC9482650
